Parameter: self-cleavage kobs at 160 uM GlcN6P. Scope: all listed entries.
B1: glmS ribozyme (parent)
chain: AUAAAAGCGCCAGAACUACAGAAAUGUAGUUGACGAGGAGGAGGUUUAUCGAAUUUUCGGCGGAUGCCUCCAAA

- Variants of: B1
- TEST_SUMMARY: self-cleavage kobs at 160 uM GlcN6P; higher = faster cleavage; RNA array
- CONDITION_INFO: with glucosamine-6-phosphate
Variants at the floor of the assay were thinned out.
ENDPOINT_NAME: self-cleavage kobs at 160 uM GlcN6P

{"columns": ["MUTATION_ID", "ENDPOINT_NAME", "TEST_VALUE"],
 "data": [
  ["G44C U57C", "self-cleavage kobs at 160 uM GlcN6P", "< 1e-05 s⁻¹"],
  ["A6U U49C", "self-cleavage kobs at 160 uM GlcN6P", "< 1e-05 s⁻¹"],
  ["A12U U54A", "self-cleavage kobs at 160 uM GlcN6P", "0.00304 s⁻¹"],
  ["A14G G29U A52C C68A", "self-cleavage kobs at 160 uM GlcN6P", "0.000918 s⁻¹"],
  ["G7C G35U", "self-cleavage kobs at 160 uM GlcN6P", "< 1e-05 s⁻¹"],
  ["C34A C70U", "self-cleavage kobs at 160 uM GlcN6P", "< 1e-05 s⁻¹"],
  ["C8G C16U C34U U65G", "self-cleavage kobs at 160 uM GlcN6P", "< 1e-05 s⁻¹"],
  ["G29C C50G", "self-cleavage kobs at 160 uM GlcN6P", "0.000194 s⁻¹"],
  ["C8A G13A", "self-cleavage kobs at 160 uM GlcN6P", "< 1e-05 s⁻¹"],
  ["A39G G40U", "self-cleavage kobs at 160 uM GlcN6P", "0.000207 s⁻¹"],
  ["G38U U65G C70U", "self-cleavage kobs at 160 uM GlcN6P", "< 1e-05 s⁻¹"],
  ["A12C C70G", "self-cleavage kobs at 160 uM GlcN6P", "7.74e-05 s⁻¹"],
  ["A14G U54A", "self-cleavage kobs at 160 uM GlcN6P", "0.00342 s⁻¹"],
  ["G7U G13U A15U G40C G41A A52U", "self-cleavage kobs at 160 uM GlcN6P", "< 1e-05 s⁻¹"],
  ["G13A A42G G43U C70A", "self-cleavage kobs at 160 uM GlcN6P", "< 1e-05 s⁻¹"],
  ["A33U G37U", "self-cleavage kobs at 160 uM GlcN6P", "< 1e-05 s⁻¹"],
  ["G51U G62U", "self-cleavage kobs at 160 uM GlcN6P", "< 1e-05 s⁻¹"],
  ["A42U U45C A52G G59U", "self-cleavage kobs at 160 uM GlcN6P", "< 1e-05 s⁻¹"],
  ["G29A C67A", "self-cleavage kobs at 160 uM GlcN6P", "0.000165 s⁻¹"],
  ["C8U C50G", "self-cleavage kobs at 160 uM GlcN6P", "0.000167 s⁻¹"],
  ["A14G G63U", "self-cleavage kobs at 160 uM GlcN6P", "< 1e-05 s⁻¹"],
  ["U45C U54A", "self-cleavage kobs at 160 uM GlcN6P", "0.000161 s⁻¹"],
  ["C34G G40U G62C", "self-cleavage kobs at 160 uM GlcN6P", "< 1e-05 s⁻¹"],
  ["U54C U55C", "self-cleavage kobs at 160 uM GlcN6P", "0.000636 s⁻¹"],
  ["A6G G37C", "self-cleavage kobs at 160 uM GlcN6P", "< 1e-05 s⁻¹"],
  ["U30C A36G", "self-cleavage kobs at 160 uM GlcN6P", "< 1e-05 s⁻¹"],
  ["C34A U45G G66U U69G", "self-cleavage kobs at 160 uM GlcN6P", "< 1e-05 s⁻¹"],
  ["A6G C16G G40A C50U C70G", "self-cleavage kobs at 160 uM GlcN6P", "< 1e-05 s⁻¹"],
  ["G44U A48G", "self-cleavage kobs at 160 uM GlcN6P", "< 1e-05 s⁻¹"],
  ["G29U G37C A39U", "self-cleavage kobs at 160 uM GlcN6P", "< 1e-05 s⁻¹"],
  ["G32U A64U", "self-cleavage kobs at 160 uM GlcN6P", "< 1e-05 s⁻¹"],
  ["U30G C70U", "self-cleavage kobs at 160 uM GlcN6P", "0.000471 s⁻¹"],
  ["C8G U55C", "self-cleavage kobs at 160 uM GlcN6P", "< 1e-05 s⁻¹"],
  ["A36U U55C", "self-cleavage kobs at 160 uM GlcN6P", "< 1e-05 s⁻¹"],
  ["G7C U56A", "self-cleavage kobs at 160 uM GlcN6P", "< 1e-05 s⁻¹"],
  ["G9C U49C", "self-cleavage kobs at 160 uM GlcN6P", "< 1e-05 s⁻¹"],
  ["G29C C34A", "self-cleavage kobs at 160 uM GlcN6P", "< 1e-05 s⁻¹"],
  ["C10U A15U", "self-cleavage kobs at 160 uM GlcN6P", "< 1e-05 s⁻¹"],
  ["A52U U57A", "self-cleavage kobs at 160 uM GlcN6P", "9.27e-05 s⁻¹"],
  ["G44C C50U U54C", "self-cleavage kobs at 160 uM GlcN6P", "< 1e-05 s⁻¹"],
  ["A12C U54G", "self-cleavage kobs at 160 uM GlcN6P", "0.0011 s⁻¹"],
  ["U31C G32C A33U C34A U49A", "self-cleavage kobs at 160 uM GlcN6P", "< 1e-05 s⁻¹"],
  ["U45C C61A", "self-cleavage kobs at 160 uM GlcN6P", "< 1e-05 s⁻¹"],
  ["G43U G66C", "self-cleavage kobs at 160 uM GlcN6P", "< 1e-05 s⁻¹"],
  ["G41C G44A", "self-cleavage kobs at 160 uM GlcN6P", "< 1e-05 s⁻¹"],
  ["A15C G66A", "self-cleavage kobs at 160 uM GlcN6P", "0.000372 s⁻¹"]
]}
